Biological target: N-type calcium channel (Homo sapiens)
Construct: endogenous in cells
Sequence (Q00975 whole entry): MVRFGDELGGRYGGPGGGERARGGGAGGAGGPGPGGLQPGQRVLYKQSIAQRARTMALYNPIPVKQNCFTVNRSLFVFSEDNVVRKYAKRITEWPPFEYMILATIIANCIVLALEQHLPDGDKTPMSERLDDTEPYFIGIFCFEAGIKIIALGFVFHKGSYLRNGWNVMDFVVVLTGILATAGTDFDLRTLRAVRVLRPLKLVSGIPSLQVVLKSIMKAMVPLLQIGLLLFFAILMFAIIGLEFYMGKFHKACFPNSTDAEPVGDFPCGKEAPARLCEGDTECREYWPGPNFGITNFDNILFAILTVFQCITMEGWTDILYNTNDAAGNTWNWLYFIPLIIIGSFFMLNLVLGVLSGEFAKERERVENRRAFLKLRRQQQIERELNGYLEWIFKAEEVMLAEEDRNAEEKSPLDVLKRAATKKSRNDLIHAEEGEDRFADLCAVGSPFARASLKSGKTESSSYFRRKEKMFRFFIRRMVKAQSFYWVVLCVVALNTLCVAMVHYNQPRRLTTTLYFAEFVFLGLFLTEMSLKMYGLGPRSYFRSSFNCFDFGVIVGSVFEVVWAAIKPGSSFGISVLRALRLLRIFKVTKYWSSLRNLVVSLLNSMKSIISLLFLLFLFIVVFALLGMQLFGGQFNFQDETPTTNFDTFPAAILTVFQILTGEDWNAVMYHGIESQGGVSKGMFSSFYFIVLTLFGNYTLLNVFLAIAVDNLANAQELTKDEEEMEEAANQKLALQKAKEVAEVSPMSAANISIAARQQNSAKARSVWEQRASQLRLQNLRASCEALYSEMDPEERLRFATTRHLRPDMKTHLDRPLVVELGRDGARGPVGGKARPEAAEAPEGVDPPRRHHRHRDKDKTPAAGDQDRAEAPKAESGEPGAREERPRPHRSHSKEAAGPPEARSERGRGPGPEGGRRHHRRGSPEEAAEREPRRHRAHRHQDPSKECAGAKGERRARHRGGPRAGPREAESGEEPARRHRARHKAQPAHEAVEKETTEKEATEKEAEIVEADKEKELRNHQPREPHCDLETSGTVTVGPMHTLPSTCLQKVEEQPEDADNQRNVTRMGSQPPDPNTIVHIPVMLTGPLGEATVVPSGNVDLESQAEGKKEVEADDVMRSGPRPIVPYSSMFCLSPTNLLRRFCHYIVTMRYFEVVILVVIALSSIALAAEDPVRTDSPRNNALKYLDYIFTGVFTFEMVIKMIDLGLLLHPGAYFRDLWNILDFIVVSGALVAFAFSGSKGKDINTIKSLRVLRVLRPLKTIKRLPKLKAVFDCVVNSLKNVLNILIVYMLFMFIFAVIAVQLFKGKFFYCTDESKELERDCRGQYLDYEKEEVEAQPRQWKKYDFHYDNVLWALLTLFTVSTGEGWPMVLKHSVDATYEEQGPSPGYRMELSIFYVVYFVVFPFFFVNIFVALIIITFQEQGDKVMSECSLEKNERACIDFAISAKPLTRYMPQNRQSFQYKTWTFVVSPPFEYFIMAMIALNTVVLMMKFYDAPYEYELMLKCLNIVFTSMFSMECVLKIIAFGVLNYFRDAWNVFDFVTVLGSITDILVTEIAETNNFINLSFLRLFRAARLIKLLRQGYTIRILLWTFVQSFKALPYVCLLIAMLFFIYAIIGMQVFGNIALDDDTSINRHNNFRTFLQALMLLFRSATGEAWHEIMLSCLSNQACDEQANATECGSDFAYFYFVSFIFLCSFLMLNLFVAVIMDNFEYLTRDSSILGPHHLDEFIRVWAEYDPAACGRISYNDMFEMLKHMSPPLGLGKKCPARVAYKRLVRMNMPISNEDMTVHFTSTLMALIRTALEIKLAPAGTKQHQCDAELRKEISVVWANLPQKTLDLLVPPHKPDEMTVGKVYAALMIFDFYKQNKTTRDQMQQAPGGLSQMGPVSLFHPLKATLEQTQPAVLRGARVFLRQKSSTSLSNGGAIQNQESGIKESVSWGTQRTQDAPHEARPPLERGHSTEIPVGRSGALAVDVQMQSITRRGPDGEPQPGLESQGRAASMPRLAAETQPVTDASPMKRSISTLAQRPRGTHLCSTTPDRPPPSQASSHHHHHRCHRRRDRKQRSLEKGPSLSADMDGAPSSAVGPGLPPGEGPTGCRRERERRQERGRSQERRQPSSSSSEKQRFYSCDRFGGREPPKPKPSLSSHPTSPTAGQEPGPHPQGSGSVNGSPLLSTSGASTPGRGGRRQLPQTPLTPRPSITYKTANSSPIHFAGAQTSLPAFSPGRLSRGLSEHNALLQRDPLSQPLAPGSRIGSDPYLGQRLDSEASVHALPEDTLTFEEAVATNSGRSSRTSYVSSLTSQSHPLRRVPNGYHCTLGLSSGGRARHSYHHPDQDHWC
Test: Determination of inhibitory activity on N-type calcium channel (Fura-2 calcium influx, KCl depolarization, with nifedipine)
Type: cell-based
Conditions: compound at final concentration of 3 μM, depolarized by 80 mM potassium chloride, Fura-2 fluorescence, read-out: Inhibitory activity on Ca influx (%)
measurementLabel: inhibition at 3 µM (%)
Numbers only; they are read as %.

Ask: Consider the compound `COc1ccc(CNC(=O)[C@H](COCC2CCCCC2)NC(=O)OC(C)(C)C)cc1` . State its measured inhibition at 3 µM.
Result: 75

Ask: Consider the compound `CC(C)(C)OC(=O)N1CSC[C@H]1C(=O)N[C@@H](CSCC1CCCCC1)C(=O)NCc1ccc(Oc2ccccc2)cc1` . State its measured inhibition at 3 µM.
Result: 73

Ask: Consider the compound `O=C(N[C@@H](CSCC1CCCCC1)C(=O)NCc1ccc(Oc2ccccc2)cc1)[C@@H]1CSCN1` . State its measured inhibition at 3 µM.
Result: 88

Ask: Consider the compound `COc1ccc(CNC(=O)[C@H](COCC2CCCCC2)NS(=O)(=O)c2ccccc2)cc1` . State its measured inhibition at 3 µM.
Result: 79

Where these numbers come from: patent US7166590B2
